- system_under_test: Bub1 (Homo sapiens, UniProt O43683)
- Construct: catalytic domain of human Bub1 (amino acids 704-1085); His6 (N); made in house; host or cells: insect cells (Hi5)
- Sequence (O43683 704-1085): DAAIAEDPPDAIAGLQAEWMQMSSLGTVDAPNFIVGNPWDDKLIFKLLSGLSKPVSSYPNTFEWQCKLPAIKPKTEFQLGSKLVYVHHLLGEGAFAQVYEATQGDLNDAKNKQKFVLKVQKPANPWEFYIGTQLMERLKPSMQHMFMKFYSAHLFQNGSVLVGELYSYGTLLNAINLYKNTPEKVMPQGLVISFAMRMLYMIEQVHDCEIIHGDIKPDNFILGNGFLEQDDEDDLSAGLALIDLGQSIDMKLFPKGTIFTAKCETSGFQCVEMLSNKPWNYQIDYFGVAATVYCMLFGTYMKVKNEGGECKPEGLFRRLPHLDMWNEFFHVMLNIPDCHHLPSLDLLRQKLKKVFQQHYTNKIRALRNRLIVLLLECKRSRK
- method_description: Bub1 high ATP kinase assay (TR-FRET)
- Format: biochemical
- experimental_context: Bub1 high ATP (2 mM) IC50, TR-FRET, 2 mM ATP; Table 3
Property: IC50; scope: individual compounds

The examples below pair each entry with its known result.
[
  {
    "compound": "COc1c(Cl)cccc1Nc1c(-c2ccncc2OCCC2CCCCO2)[nH]c2c1C(=O)N[C@H](C)C2 (stereo partly shown) [Example 86]",
    "observed": "2400 nM"
  },
  {
    "compound": "COc1c(Cl)cccc1Nc1c(-c2ccncc2OC[C@@H]2CCCO2)[nH]c2c1C(=O)NC1(CC1)C2 [Example 113]",
    "observed": "761 nM"
  },
  {
    "compound": "COc1c(Cl)cccc1Nc1c(-c2ccncc2OCC2CCCCO2)[nH]c2c1C(=O)N[C@H](C)C2 (mixture of isomers) [Example 27]",
    "observed": "> 5700 nM"
  }
]

Task item: What does the data say about its IC50? Entry: COc1c(Cl)cccc1Nc1c(-c2ccncc2OCC(C)(C)OC)[nH]c2c1C(=O)NCC2CCO (stereo not shown) [Example 13]
Reply: 3630 nM

* * *

- system_under_test: EGFR with insertion SVD between D770 and N771 (mutEGFR D770_N771insSVD) (Homo sapiens, UniProt P00533, DUP768-770)
- Construct: amino acids R669 to A1210; made in house; host or cells: Sf9 insect cells (baculovirus)
- method_description: Exon20-Mutant-EGFR(D770_N771insSVD) kinase assay (TR-FRET)
- Type: biochemical
- experimental_context: 2 mM ATP, Table 2
quantity: mutEGFR (D770_N771insSVD) kinase assay IC50 (pM)
Hi! Could you send only the number? It should be in pM, unit omitted.

The examples below pair each entry with its known result.
[
  {
    "molecule": "COc1c(Cl)cccc1Nc1c(-c2ccncc2OCCC2CCCCO2)[nH]c2c1C(=O)N[C@H](C)C2 (stereo partly drawn) [Example 86]",
    "observed": 261
  },
  {
    "molecule": "COc1c(Cl)cccc1Nc1c(-c2ccncc2OCC2COC(C)(C)CO2)[nH]c2c1C(=O)NCC2C (single isomer, unassigned) [Example 97]",
    "observed": 796
  }
]

Next up:
Task item: What does the data say about its mutEGFR (D770_N771insSVD) kinase assay IC50? Entry: COc1c(Cl)cccc1Nc1c(-c2ccncc2OCC2COCCO2)[nH]c2c1C(=O)N[C@@H]1CCC[C@H]21 (single isomer, unassigned) [Example 54]
Reply: 198

* * *

- system_under_test: Ba/F3-EGFR-D770_N771insSVD cells (Homo sapiens, UniProt P00533, DUP768-770, cells depend on it)
- Sequence (P00533 with tags, fused parts or gaps DUP768-770): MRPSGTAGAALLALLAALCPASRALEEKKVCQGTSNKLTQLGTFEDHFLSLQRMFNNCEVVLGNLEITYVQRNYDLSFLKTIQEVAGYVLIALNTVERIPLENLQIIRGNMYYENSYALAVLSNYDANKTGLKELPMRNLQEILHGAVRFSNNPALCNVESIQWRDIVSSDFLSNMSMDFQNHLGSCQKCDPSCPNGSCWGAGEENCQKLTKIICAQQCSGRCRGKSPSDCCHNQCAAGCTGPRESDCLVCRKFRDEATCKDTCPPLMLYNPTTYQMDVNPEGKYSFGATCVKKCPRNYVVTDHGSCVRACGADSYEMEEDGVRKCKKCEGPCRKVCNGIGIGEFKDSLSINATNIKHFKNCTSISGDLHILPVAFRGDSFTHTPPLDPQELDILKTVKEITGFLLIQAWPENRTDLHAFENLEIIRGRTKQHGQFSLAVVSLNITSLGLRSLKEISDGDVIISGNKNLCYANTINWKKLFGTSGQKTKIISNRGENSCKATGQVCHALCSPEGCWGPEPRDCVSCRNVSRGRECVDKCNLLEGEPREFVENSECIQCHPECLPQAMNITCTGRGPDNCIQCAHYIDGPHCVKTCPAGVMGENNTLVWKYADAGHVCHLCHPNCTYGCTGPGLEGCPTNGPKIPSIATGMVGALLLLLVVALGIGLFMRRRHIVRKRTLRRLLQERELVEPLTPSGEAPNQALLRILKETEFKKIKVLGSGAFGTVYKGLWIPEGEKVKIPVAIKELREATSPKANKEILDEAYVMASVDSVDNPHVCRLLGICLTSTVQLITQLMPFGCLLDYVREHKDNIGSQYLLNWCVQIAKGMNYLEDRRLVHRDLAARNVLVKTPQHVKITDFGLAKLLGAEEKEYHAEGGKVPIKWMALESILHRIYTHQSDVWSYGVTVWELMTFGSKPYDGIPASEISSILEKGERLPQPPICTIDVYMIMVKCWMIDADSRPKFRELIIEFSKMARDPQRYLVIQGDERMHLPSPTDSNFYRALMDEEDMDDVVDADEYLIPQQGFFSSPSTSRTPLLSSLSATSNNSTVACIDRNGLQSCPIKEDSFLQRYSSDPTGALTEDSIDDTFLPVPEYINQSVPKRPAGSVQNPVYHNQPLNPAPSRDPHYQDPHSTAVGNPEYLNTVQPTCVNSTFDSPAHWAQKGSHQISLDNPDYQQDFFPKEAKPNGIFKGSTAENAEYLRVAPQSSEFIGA
- method_description: Ba/F3 cell survival assay, EGFR D770_N771insSVD
- Assay type: cell-based
- experimental_context: Cell Titer-Glo, 48 h, without IL-3; Table 4; read-out: BA/F3 (insSVD) IC50
Property: GI50; scope: individual compounds
Hi! Could you send only the number? It should be in nM, unit omitted.

Task item: What does the data say about its GI50? Entry: "Cc1c(Cl)cccc1Nc1c(-c2ccncc2OC[C@@H]2CN(C)CCO2)[nH]c2c1C(=O)N[C@H](C)C2"
Reply: 25

Task item: Thanks! And COc1c(Cl)cccc1Nc1c(-c2ccncc2OCC2COC(C)(C)CO2)[nH]c2c1C(=O)NC1(CCC1)C2 (single isomer, unassigned) [Example 130] ?
Reply: 8.01

Task item: Thanks! And COc1c(Cl)cccc1Nc1c(-c2ccncc2OCCC2CCCCO2)[nH]c2c1C(=O)N[C@H](C)C2 (single isomer, unassigned) [Example 87] ?
Reply: 15

Task item: Thanks! And "COc1c(Cl)cccc1Nc1c(-c2ccncc2OC[C@@H]2CCCO2)[nH]c2c1C(=O)NC1(CCC1)C2" ?
Reply: 46.4

* * *

- system_under_test: EGFR with insertion SVD between D770 and N771 (mutEGFR D770_N771insSVD) (Homo sapiens, UniProt P00533, DUP768-770)
- Construct: amino acids R669 to A1210; made in house; host or cells: Sf9 insect cells (baculovirus)
- method_description: Exon20-Mutant-EGFR(D770_N771insSVD) kinase assay (TR-FRET)
- Type: biochemical
- experimental_context: 2 mM ATP, Table 2
Property: mutEGFR (D770_N771insSVD) kinase assay IC50; scope: individual compounds
Hi! Could you send only the number? It should be in nM, unit omitted.

[
  {
    "compound": "COc1c(Cl)cccc1Nc1c(-c2ccncc2OCC(C)OC)[nH]c2c1C(=O)N[C@H](C)C2 (single isomer, unassigned) [Example 81]",
    "unit_label": "nM",
    "observed": 0.157
  }
]

Task item: What does the data say about its mutEGFR (D770_N771insSVD) kinase assay IC50? Entry: COc1c(Cl)cccc1Nc1c(-c2ccncc2OCC2CCCCO2)[nH]c2c1C(=O)N[C@H](C)C2 (mixture of isomers) [Example 27]
Reply: 0.0973

Task item: Thanks! And COc1c(Cl)cccc1Nc1c(-c2ccncc2OCC2COC(C)(C)CO2)[nH]c2c1C(=O)NCC2C (single isomer, unassigned) [Example 95] ?
Reply: 0.504

Task item: Thanks! And COc1c(Cl)cccc1Nc1c(-c2ccncc2OC[C@@H]2CCCO2)[nH]c2c1C(=O)NCC2C (single isomer, unassigned) [Example 31] ?
Reply: 0.119

* * *

- system_under_test: Ba/F3-EGFR-D770_N771insSVD cells (Homo sapiens, UniProt P00533, DUP768-770, cells depend on it)
- method_description: Ba/F3 cell survival assay, EGFR D770_N771insSVD
- Assay type: cell-based
- experimental_context: Cell Titer-Glo, 48 h, without IL-3; Table 4; read-out: BA/F3 (insSVD) IC50
Friendly reminder: GI50 below 40 nM is rule met, at or above is rule not met.

Some solved cases for reference:
[
  {
    "compound": "COCC(C)Oc1cnccc1-c1[nH]c2c(c1Nc1cccc(Cl)c1OC)C(=O)N[C@@H]1CCC[C@H]21 (single isomer, unassigned) [Example 50]",
    "class_label": "rule not met"
  },
  {
    "compound": "COc1c(Cl)cccc1Nc1c(-c2ccncc2OCC(C)(C)OC)[nH]c2c1C(=O)N[C@H](C)C2",
    "class_label": "rule met"
  },
  {
    "compound": "COCC(C)Oc1cnccc1-c1[nH]c2c(c1Nc1cccc(Cl)c1OC)C(=O)N[C@@H]1CCC[C@H]21 (stereo partly drawn) [Example 49]",
    "class_label": "rule met"
  },
  {
    "compound": "COc1c(Cl)cccc1Nc1c(-c2ccncc2OCCC2CCCCO2)[nH]c2c1C(=O)N[C@H](C)C2 (stereo partly drawn) [Example 86]",
    "class_label": "rule met"
  },
  {
    "compound": "COc1c(Cl)cccc1Nc1c(-c2ccncc2OC[C@@H]2CN(CC(F)F)CCO2)[nH]c2c1C(=O)N[C@H](C)C2",
    "class_label": "rule not met"
  }
]

Task item: State whether 40 nM exceeds GI50 recorded for COc1c(Cl)cccc1Nc1c(-c2ccncc2OCC2OCCC2(F)F)[nH]c2c1C(=O)N[C@H](C)C2 (single isomer, unassigned) [Example 72] .
Reply: rule met

* * *

- system_under_test: EGFR with insertion SVD between D770 and N771 (mutEGFR D770_N771insSVD) (Homo sapiens, UniProt P00533, DUP768-770)
- Construct: amino acids R669 to A1210; made in house; host or cells: Sf9 insect cells (baculovirus)
- method_description: Exon20-Mutant-EGFR(D770_N771insSVD) kinase assay (TR-FRET)
- Format: biochemical
- experimental_context: 2 mM ATP, Table 2
Property: mutEGFR (D770_N771insSVD) kinase assay IC50; scope: individual compounds
Hi! Could you send only the number? It should be in nM, unit omitted.

The examples below pair each entry with its known result.
[
  {
    "compound": "COc1c(Cl)cccc1Nc1c(-c2ccncc2OCC2COCCO2)[nH]c2c1C(=O)NC1(CCC1)C2 (single isomer, unassigned) [Example 124]",
    "observed": 0.315
  },
  {
    "compound": "Cc1c(Cl)cccc1Nc1c(-c2ccncc2OC[C@@H]2CCCO2)[nH]c2c1C(=O)NCC2C (single isomer, unassigned) [Example 59]",
    "observed": 0.285
  },
  {
    "compound": "COc1c(Cl)cccc1Nc1c(-c2ccncc2OCC2OCCCC2(F)F)[nH]c2c1C(=O)N[C@H](C)C2 (mixture of isomers) [Example 74]",
    "observed": 0.242
  },
  {
    "compound": "Cc1c(Cl)cccc1Nc1c(-c2ccncc2OCC2COCCO2)[nH]c2c1C(=O)NCC2C (single isomer, unassigned) [Example 68]",
    "observed": 0.3
  }
]

Next up:
Task item: What does the data say about its mutEGFR (D770_N771insSVD) kinase assay IC50? Entry: "COC(C)(C)COc1cnccc1-c1[nH]c2c(c1Nc1cccc(F)c1CC(F)F)C(=O)N[C@H](C)C2"
Reply: 0.24
